Molecular target: ABCC1 (Homo sapiens, UniProt P33527)
Construct: human ABCC1 overexpressed in MDCKII cells
Sequence (P33527 whole entry): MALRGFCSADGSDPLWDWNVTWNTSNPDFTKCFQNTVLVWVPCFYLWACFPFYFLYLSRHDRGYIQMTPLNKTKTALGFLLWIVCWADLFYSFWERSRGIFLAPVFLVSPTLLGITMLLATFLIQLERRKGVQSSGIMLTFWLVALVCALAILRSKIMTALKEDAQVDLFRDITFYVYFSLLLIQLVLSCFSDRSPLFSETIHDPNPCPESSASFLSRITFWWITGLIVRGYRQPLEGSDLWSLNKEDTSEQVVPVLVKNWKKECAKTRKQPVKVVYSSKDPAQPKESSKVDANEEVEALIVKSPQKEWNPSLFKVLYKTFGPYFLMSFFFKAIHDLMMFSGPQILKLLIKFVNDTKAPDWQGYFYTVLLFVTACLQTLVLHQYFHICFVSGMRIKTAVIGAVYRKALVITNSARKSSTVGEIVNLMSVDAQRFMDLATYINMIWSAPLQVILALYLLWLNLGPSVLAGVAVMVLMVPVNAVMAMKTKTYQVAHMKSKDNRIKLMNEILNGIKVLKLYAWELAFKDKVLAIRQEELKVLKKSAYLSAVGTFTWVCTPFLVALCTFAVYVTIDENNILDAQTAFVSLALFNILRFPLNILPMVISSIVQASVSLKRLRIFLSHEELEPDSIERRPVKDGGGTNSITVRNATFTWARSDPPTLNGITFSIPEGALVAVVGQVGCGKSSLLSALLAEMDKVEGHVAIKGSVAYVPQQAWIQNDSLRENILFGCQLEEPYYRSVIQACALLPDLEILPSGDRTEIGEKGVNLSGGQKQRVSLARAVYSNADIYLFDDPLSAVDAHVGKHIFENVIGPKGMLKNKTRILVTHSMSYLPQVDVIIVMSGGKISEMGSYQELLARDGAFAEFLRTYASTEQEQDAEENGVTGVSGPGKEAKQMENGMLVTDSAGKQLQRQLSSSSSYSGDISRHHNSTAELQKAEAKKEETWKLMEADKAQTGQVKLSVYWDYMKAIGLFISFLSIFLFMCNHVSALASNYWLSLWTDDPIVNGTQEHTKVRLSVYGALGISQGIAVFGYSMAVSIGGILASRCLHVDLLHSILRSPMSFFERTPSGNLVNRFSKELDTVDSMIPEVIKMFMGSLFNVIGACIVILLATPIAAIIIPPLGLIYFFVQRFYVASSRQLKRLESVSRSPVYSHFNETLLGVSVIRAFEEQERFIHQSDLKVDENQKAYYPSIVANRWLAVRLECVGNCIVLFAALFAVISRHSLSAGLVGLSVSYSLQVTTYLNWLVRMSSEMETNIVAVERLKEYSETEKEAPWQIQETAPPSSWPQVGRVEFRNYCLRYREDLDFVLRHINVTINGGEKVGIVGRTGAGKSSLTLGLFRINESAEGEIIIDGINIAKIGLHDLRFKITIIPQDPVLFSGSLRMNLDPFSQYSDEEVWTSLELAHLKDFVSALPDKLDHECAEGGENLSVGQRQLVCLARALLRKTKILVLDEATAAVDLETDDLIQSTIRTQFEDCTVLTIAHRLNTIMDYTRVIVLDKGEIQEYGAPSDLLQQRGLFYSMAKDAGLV
Assay: daunorubicin accumulation assay in MDCKII-ABCC1 cells, flow cytometry
MEASURED_PARAMETER: IC50 (µM)

SMILES_REPR	TARGET_ENTITY	TEST_RESULT
COC(=O)N[C@@H](C)CNc1nccc(-c2cn(C(C)C)nc2-c2cc(Cl)cc(NS(C)(=O)=O)c2F)n1	ABCC1 (Homo sapiens, UniProt P33527)	8.63
